test system: 361931-004-R-J1-PDC multicell spheroid viability; test: Anticancer human tumor 361931-004-R-J1-PDC patient-derived colon adenocarcinoma cell line growth inhibition [PI3K]; conditions: second compound 0.00316 µM; first compound 1 µM; hits give low values;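 note: spheroids exposed to agents for seven days before readout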
Please provide measured viability, T/C for the entries that follow.
// units = %; emit number, no label

// fetch 361931-004-R-J1-PDC multicell spheroid viability viability, T/C for CC(Cn1ccc(-c2ccc(C#N)c(Cl)c2)n1)NC(=O)c1cc(C(C)O)[nH]n1 (stereo unspecified) + CC(Nc1ccc2c(c1)OCCn1cc(N3C(=O)OCC3C(F)F)nc1-2)C(N)=O
110

Now consider Cn1ncc(Cl)c1-c1cc(C(=O)NC(CN)Cc2cccc(F)c2)sc1Cl (stereo unspecified) + CC(Nc1ccc2c(c1)OCCn1cc(N3C(=O)OCC3C(F)F)nc1-2)C(N)=O .
50.9

Now consider C=CC(=O)N1CCN(c2nc(=O)n(-c3c(C)ccnc3C(C)C)c3nc(-c4c(O)cccc4F)c(F)cc23)C(C)C1 (stereo unspecified) + CC(Nc1ccc2c(c1)OCCn1cc(N3C(=O)OCC3C(F)F)nc1-2)C(N)=O .
92.7

Now consider CC1(C)CCC(Nc2ncc(C(F)(F)F)c(-c3c[nH]c4c(P(C)(C)=O)c(C#N)ccc34)n2)CN1 (stereo unspecified) + CC(Nc1ccc2c(c1)OCCn1cc(N3C(=O)OCC3C(F)F)nc1-2)C(N)=O .
72.6

Now consider CCN1CCN(Cc2ccc(Nc3ncc(F)c(-c4cc(F)c5nc(C)n(C(C)C)c5c4)n3)nc2)CC1 + COc1c(OCCCN2CCOCC2)ccc2c3n(c(=NC(=O)c4cnc(N)nc4)nc12)CCN3 .
87.6

Now consider Cn1nccc1Nc1nccc(-c2ccn(C(CO)c3ccc(Cl)c(F)c3)c(=O)c2)n1 (stereo unspecified) + CC(Nc1ccc2c(c1)OCCn1cc(N3C(=O)OCC3C(F)F)nc1-2)C(N)=O .
88.8

Now consider CC1(C)CCC(CN2CCN(c3ccc(C(=O)NS(=O)(=O)c4ccc(NCC5CCOCC5)c([N+](=O)[O-])c4)c(Oc4cnc5[nH]ccc5c4)c3)CC2)=C(c2ccc(Cl)cc2)C1 + CC(Nc1ccc2c(c1)OCCn1cc(N3C(=O)OCC3C(F)F)nc1-2)C(N)=O .
101

Now consider CC1(C)CCC(Nc2ncc(C(F)(F)F)c(-c3c[nH]c4c(P(C)(C)=O)c(C#N)ccc34)n2)CN1 (stereo unspecified) + COc1c(OCCCN2CCOCC2)ccc2c3n(c(=NC(=O)c4cnc(N)nc4)nc12)CCN3 .
92.7

Now consider CCN1CCN(Cc2ccc(Nc3ncc(F)c(-c4cc(F)c5nc(C)n(C(C)C)c5c4)n3)nc2)CC1 + CC(Nc1ccc2c(c1)OCCn1cc(N3C(=O)OCC3C(F)F)nc1-2)C(N)=O .
64.3

Now consider CCCS(=O)(=O)Nc1ccc(F)c(C(=O)c2c[nH]c3ncc(-c4ccc(Cl)cc4)cc23)c1F + COc1c(OCCCN2CCOCC2)ccc2c3n(c(=NC(=O)c4cnc(N)nc4)nc12)CCN3 .
89.8

Now consider C[C@@H](NC(=O)c1ncnc(N)c1Cl)c1ncc(C(=O)Nc2cc(C(F)(F)F)c(Cl)cn2)s1 + CC(Nc1ccc2c(c1)OCCn1cc(N3C(=O)OCC3C(F)F)nc1-2)C(N)=O .
91.2

FYI, the data here is from PubChem BioAssay AID1963979.
